Tested On: human full-length recombinant PKC βII (Homo sapiens, UniProt P05771)
Construct: Active human full-length recombinant PKC βII; purchased Invitrogen GmbH, Darmstadt, Germany
Sequence (P05771 1-673 isoform P05771-2): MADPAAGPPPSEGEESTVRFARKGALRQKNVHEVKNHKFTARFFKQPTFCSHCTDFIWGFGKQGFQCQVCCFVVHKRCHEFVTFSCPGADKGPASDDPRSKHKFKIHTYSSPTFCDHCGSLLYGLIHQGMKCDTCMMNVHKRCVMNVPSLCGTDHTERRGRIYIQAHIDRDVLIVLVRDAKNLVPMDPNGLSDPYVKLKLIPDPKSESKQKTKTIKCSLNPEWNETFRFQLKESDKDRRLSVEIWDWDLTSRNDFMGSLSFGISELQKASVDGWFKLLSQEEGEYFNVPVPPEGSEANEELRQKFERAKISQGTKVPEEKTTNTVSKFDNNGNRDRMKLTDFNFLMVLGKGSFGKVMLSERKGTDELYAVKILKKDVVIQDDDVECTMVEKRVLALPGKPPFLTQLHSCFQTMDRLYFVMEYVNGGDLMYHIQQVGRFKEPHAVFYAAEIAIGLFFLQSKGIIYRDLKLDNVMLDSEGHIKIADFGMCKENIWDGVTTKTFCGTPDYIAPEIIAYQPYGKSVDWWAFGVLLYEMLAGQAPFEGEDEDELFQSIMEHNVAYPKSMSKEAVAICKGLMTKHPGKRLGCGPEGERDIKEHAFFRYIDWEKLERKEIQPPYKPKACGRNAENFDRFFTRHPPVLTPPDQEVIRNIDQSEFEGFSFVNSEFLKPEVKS
Method Notes: Determination of PKC βII inhibition (Caliper mobility-shift kinase assay, Fluorescein-RFARKGSLRQKNV peptide substrate)
Type: biochemical
Measurement Context: example compounds at a final concentration of 1.14 μM (±0.15 μM)
Endpoint Name: inhibition at 1.14 µM (%)

Molecule | Value Unit | inhibition at 1.14 µM
Cc1n[nH]c2nc(-c3ccc(O)cc3)cc(C(=O)N3CCC4(CCNCC4)CC3)c12 [Example 236] | % | 84
Cc1cc(O)ccc1-c1cc(C(=O)N2CCNCC2c2cc(F)cc(F)c2)c2c(C)n[nH]c2n1 (centres unmarked) [Example 136] | % | 100
Cc1n[nH]c2nc(-c3ccc(O)c(F)c3)cc(C(=O)NCC(C)(C)CN)c12 [Example 363] | % | 72
Cc1n[nH]c2nc(-c3ccc(O)cc3)cc(C(=O)NC3CC(C)(C)N(C)C(C)(C)C3)c12 [Example 276] | % | 66
Cc1n[nH]c2nc(-c3ccc(O)cc3)cc(C(=O)NCC(C)(C)N)c12 [Example 133] | % | 89
Cc1n[nH]c2nc(-c3ccc(O)cc3)cc(C(=O)NCC3CCCNC3)c12 (centres unmarked) [Example 243] | % | 78
Cc1n[nH]c2nc(-c3ccc(O)cc3)cc(C(=O)N3CCOC4(CCCNC4)C3)c12 (centres unmarked) [Example 258] | % | 78
Cc1n[nH]c2nc(-c3ccc(O)cc3)cc(C(=O)N3CCC(N)CC3)c12 [Example 249] | % | 82
